Recorded IC50 values for a group of compounds are listed next.
# method-description: Cytotoxicity against Chinese hamster CHO-K1 cells assessed as inhibition of cell growth
# Type: toxicity, cell-based, Cricetulus griseus
Entry rule: numbers only, all in µg/mL.

Recorded results for 4 compounds are shown here.
S=c1[nH]nc(-c2ccccc2)o1 | 33.3
Sc1nnc(-c2cc3ccccc3[nH]2)o1 | 21.6
Sc1nnc(-c2ccc(I)cc2)o1 | 46.7
Sc1nnc(-c2cc(Br)co2)o1 | 35.5

In: Given the compound Cc1nc(C)c(-c2nnc(S)o2)s1 , write its reported IC50.
Out: 21.7

In: Read the entry Sc1nnc(-c2cc3ccccc3o2)o1 and write its reported IC50.
Out: 34.4

---

# Tested on: Mycobacterium tuberculosis
# method-description: Antimycobacterial activity against Mycobacterium tuberculosis H37Rv
# Format: functional
measure: MIC99 (µM)
Quick reminder: number only, in µM, skip the unit.

CC(=O)N1/C(=C/c2cccc(-c3ccc(F)cc3)c2)C(=O)c2ccccc21 | 5.66
CC(=O)N1/C(=C/c2ccc(-c3ccc(F)cc3)cc2)C(=O)c2ccccc21 | 1.98
CC(=O)N1/C(=C/c2ccc(-c3ccc(Cl)cc3)cc2)C(=O)c2ccccc21 | 4.05
CC(=O)N1/C(=C/c2ccc(-c3ccsc3)cc2)C(=O)c2ccccc21 | 0.6
CC(=O)N1/C(=C/c2ccc(-c3cnc4ccccc4c3)cc2)C(=O)c2ccccc21 | 0.736

In: Give me measured MIC99, please, for this compound: CC(=O)N1/C(=C/c2ccc(-c3ccc(C)cc3)cc2)C(=O)c2ccccc21
Out: 4.37

In: Find the measured MIC99 of CC(=O)N1/C(=C/c2cccc(-c3ccccc3)c2)C(=O)c2ccccc21 and report it.
Out: 4.94

In: Look up MIC99 of CC(=O)N1/C(=C/c2cccc(-c3cnn(C)c3)c2)C(=O)c2ccccc21 and report it.
Out: 5.61

In: Find the measured MIC99 of CC(=O)N1/C(=C/c2cccc(-c3ccsc3)c2)C(=O)c2ccccc21 and report it.
Out: 3.34

In: Supply measured MIC99 of CC(=O)N1/C(=C/c2ccc(-c3cnn(C)c3)cc2)C(=O)c2ccccc21 in your reply.
Out: 3.66

In: Note down MIC99 recorded for CC(=O)N1/C(=C/c2cccc(-c3ccc(Cl)cc3)c2)C(=O)c2ccccc21
Out: 7.85

In: Specify measured MIC99 for CC(=O)N1/C(=C/c2ccc(Oc3ccc(Cl)cc3)cc2)C(=O)c2cc(Cl)ccc21 .
Out: 6.87

In: State, in one line, measured MIC99 of CC(=O)N1/C(=C/c2ccc(-c3ccc(C(F)(F)F)cc3)cc2)C(=O)c2ccccc21
Out: 4.3

---

Catalogue of MIC readings, one per entry.
# Test system: Mycobacterium tuberculosis
# method-description: Antimycobacterial activity against Mycobacterium tuberculosis H37Rv assessed as inhibition of bacterial growth incubated for 5 days by alamar blue assay
# Format: functional
# measurement-context: 120 h, time 5 day
Reply with just the number (in µg/mL).

Examples from the recorded data:
Cc1ccc(NC(=O)c2c(Nc3ccc(Cl)cc3)nn3c(O)cc(C)nc23)cc1 | 3.12
Cc1ccc(Nc2nn3c(O)cc(C)nc3c2C(=O)Nc2ccc(Cl)cc2)c(C)c1 | 50
Cc1ccc(NC(=O)c2c(Nc3ccccc3)nn3c(O)cc(C)nc23)cc1 | 50
COc1ccc(Nc2nn3c(O)cc(C)nc3c2C(=O)Nc2ccc(C)cc2C)cc1 | 50
Cc1cc(O)n2nc(Nc3ccccc3)c(C(=O)Nc3ccccc3)c2n1 | 50
COc1ccc(NC(=O)c2c(Nc3ccccc3)nn3c(O)cc(C)nc23)cc1 | 50
CCN1CCN(c2nn3c(O)cc(C)nc3c2C(=O)Nc2cccc(Cl)c2Cl)CC1 | 50
CCOc1ccc(NC(=O)c2c(Nc3ccc(C)cc3C)nn3c(O)cc(C)nc23)cc1 | 50
NNC(=O)c1ccncc1 [ISONIAZID] | 0.5
NC(=O)c1cnccn1 [PYRAZINAMIDE] | 3.12

In: Provide measured MIC value, entry: Cc1cc(O)n2nc(Nc3ccc(Cl)c(Cl)c3)c(C(N)=O)c2n1
Out: 6.25

In: Identify measured MIC associated with COc1ccc(Nc2nn3c(O)cc(C)nc3c2C(=O)Nc2ccc(F)c(Cl)c2)cc1
Out: 25

In: Return MIC for the following compound: Cc1ccc(Nc2nn3c(O)cc(C)nc3c2C(=O)Nc2ccc(F)cc2)c(C)c1
Out: 50

In: Query MIC for Cc1cc(O)n2nc(Nc3ccc(Cl)cc3)c(C(=O)Nc3ccccc3)c2n1
Out: 50

In: Provide only the value of recorded MIC for COc1ccc(NC(=O)c2c(Nc3cccc(C)c3C)nn3c(O)cc(C)nc23)cc1
Out: 50

In: Determine its reported MIC: COc1ccc(NC(=O)c2c(Nc3cccc(Cl)c3)nn3c(O)cc(C)nc23)cc1
Out: 12.5

In: Respond only with MIC recorded for COc1ccc(NC(=O)c2c(NN3CCOCC3)nn3c(O)cc(C)nc23)cc1
Out: 25

In: In one line, give reported MIC of the entry Cc1cc(O)n2nc(Nc3ccc(F)c(F)c3)c(C(=O)Nc3ccc(F)cc3)c2n1 .
Out: 0.8

In: State its MIC for this compound: Cc1ccc(Nc2nn3c(O)cc(C)nc3c2C(=O)Nc2ccccc2)cc1
Out: 100

In: Give a short answer stating reported MIC for O=C(O)c1cn(C2CC2)c2cc(N3CCNCC3)c(F)cc2c1=O [CIPROFLOXACIN] .
Out: 3.12

In: Identify measured MIC corresponding to COc1ccc(NC(=O)c2c(Nc3ccc(OC)cc3)nn3c(O)cc(C)nc23)cc1
Out: 12.5

In: Item CCOc1ccc(NC(=O)c2c(Nc3ccccc3)nn3c(O)cc(C)nc23)cc1 : provide MIC
Out: 50

---

# System: Mycobacterium tuberculosis
# method-description: Antimycobacterial activity against Mycobacterium tuberculosis H37Rv assessed as inhibition of bacterial growth by resazurin dye based fluorescence analysis
# Type: functional
Below, each of the compounds is paired with its reported MIC value.
State just the number; it will be interpreted in µM.

Recorded MIC, per entry:
COc1ccc(Cn2cc(-c3ccc(S(=O)(=O)NCCO)cc3)nn2)cc1 | 0.1
NC(=O)CNS(=O)(=O)c1ccc(-c2nnn(Cc3ccc(F)c(F)c3)n2)cc1 | 0.1
O=S(=O)(NCCO)c1ccc(-c2nnn(Cc3ccc(F)cc3)n2)cc1F | 0.1
O=S(=O)(NCCO)c1ccc(-c2cn(Cc3ccc(F)cn3)nn2)cc1 | 0.1

In: Fill in: MIC on Mycobacterium tuberculosis, entry N#CCNS(=O)(=O)c1ccc(-c2cn(Cc3ccc(F)cn3)nn2)cc1
Out: 0.1

In: Give MIC only, for NC(=O)CNS(=O)(=O)c1ccc(-c2nnn(Cc3ccncc3)n2)cc1 , using Mycobacterium tuberculosis data.
Out: 0.1

In: Recall the reported MIC of Cc1cnc(Cn2nnc(-c3ccc(S(=O)(=O)NCC#N)cc3)n2)cn1 on Mycobacterium tuberculosis and write it down.
Out: 0.1

---

# method-description: Selectivity index, ratio of GI50 for cytotoxicity against human HeLa cells to MIC for antitubercular activity against dormant stage of Mycobacterium tuberculosis H37Ra
# Assay type: toxicity, cell-based
# measurement-context: read-out: Selectivity Index
measure: selectivity ratio
Give the figure by itself; no unit, no explanation.

Solved entries:
O=C(OCC(F)(F)F)c1ccsc1NC(=O)[C@@H]1CCCN1 | 101
C=CCOC(=O)c1ccsc1NC(=O)[C@@H]1CCCN1 | 46.7
CCOC(=O)c1ccsc1NC(=O)[C@@H]1CCCN1 | 4.63
O=C1CC[C@@H](COC(=O)c2ccsc2NC(=O)[C@@H]2CCCN2)N1 | 28.6
O=C(OC1CCCCC1)c1ccsc1NC(=O)[C@@H]1CCCN1 | 18.9
COC(=O)c1ccsc1NC(=O)[C@H]1CCCN1 | 10.4

Continue with the next molecule.
In: Name the recorded selectivity ratio of the item COC(=O)c1sccc1NC(=O)[C@@H]1CCCN1 in your answer.
Out: 13.4

---

# method-description: Selectivity index, ratio of GI50 for cytotoxicity against HUVEC cells to MIC for antitubercular activity against dormant stage of Mycobacterium tuberculosis H37Ra
# Type: toxicity, cell-based
# measurement-context: human, read-out: Selectivity Index
Listed here are compounds together with their documented selectivity ratio.

COC(=O)c1ccsc1NC(=O)[C@@H]1CCCN1 | > 74.6

In: Name the recorded selectivity ratio of the compound listed here: O=C(OCC(F)(F)F)c1ccsc1NC(=O)[C@@H]1CCCN1
Out: > 231

In: Note selectivity ratio for the compound shown: CCOC(=O)c1ccsc1NC(=O)[C@@H]1CCCN1
Out: > 32.8

In: Annotate the compound O=C(Oc1ccccc1)c1ccsc1NC(=O)[C@@H]1CCCN1 with its measured selectivity ratio.
Out: > 10.6

In: Write down selectivity ratio measured for item O=C(OCC(Cl)(Cl)Cl)c1ccsc1NC(=O)[C@@H]1CCCN1
Out: > 15.5

In: Name the recorded selectivity ratio of the compound listed here: O=C(OCc1ccccc1)c1ccsc1NC(=O)[C@@H]1CCCN1
Out: > 66.5
